Measurement Protocol: folding stability dG unfold from chymotrypsin proteolysis; higher = more stable
Value Type: folding stability dG unfold (kcal/mol)
// note: answer is a bare numeric in kcal/mol

Item Sequence	Result Unit	Assay Result
SAGGSAKITIEKVDDQYRITVTVPVYDENGNKVPLTFDFVYPSDDPDAFLDDVIRRIRELNPDLEKSAGGSA [r15_1050_TrMRF]	kcal/mol	3.01
SAGGSAGGSADAVVVEVTLPGGGKARAVFFPDGSVVIVVDFPDGRRAVIFLENNEIVVLPVDSAGGSAGGSA [r18_285_TrMRF]	kcal/mol	3.15
SAGMAEKIKAELEKKGYKYEIEEVKDPNNDKTYLIVKIYPKDGKEYIIIFDKEKGEVIKKIPSDEPNILSAG [r5_938_JUSTAS]	kcal/mol	1.59
SAGWFISIKYKDPPTGRKRKISIPIPPGDPWLKELGFPSLDGLAKWLAPEMREEGHDVKDVKVEIMPPKSAG [r5_722_TrROS]	kcal/mol	4.16
SAGGSAGGSAGSSSFIRKGKDGSRITATPSPSYITISTFPLKGGGIVPSTKTTTLPPSLLSAGGSAGGSAGG [r11_88_JUSTAS]	kcal/mol	-0.915
SAGGSAGGSAGGKAKIVDVKIEKEGNTVTIEVKIEVDGKLIATAKVRFTGPDGKLEIEIESAGGSAGGSAGG [r7_133_TrROS_Hall]	kcal/mol	2.9

For the sequence SAGGGPEEIRRAAEALAAELAAELGLEVVEVEVEVREDGTVTVRITVRLPDGSKLEITLTLPAGAPLSAGGS [r8_175_TrROS_Hall] , give its reported folding stability dG unfold.
1.15

Consider the sequence SAGGSAGGIHPDVKVKLVKIVSVEEGEGEVVAKALVELPNGERVVVSSEVLKELLEENPDVDVSSAGGSAGG [r6_77_TrMRF] and give its recorded folding stability dG unfold.
1.02

Kindly indicate its recorded folding stability dG unfold. Item: SAGGSAGGSAGGAIEEARDLAKEGGPWEATIPVYDPNGGPKTIKIRVEVERDPENGKFKSAGGSAGGSAGGS [r10_346_TrROS]
0.257

Assign folding stability dG unfold to the following record: SAGGSAGGDIEVRPVGVVPTPDGRLVRVEEVTFPETGRTLLVAVDLEPGRVYVFDPETGEWREESAGGSAGG [r6_114_TrMRF]
1.76

Respond only with folding stability dG unfold recorded for SAGGSAGGSEWYEIRIPGIKGSADDLVEDIQDWFPAPNMKISIEEVEPMGDGLPGMTIKLRVNSAGGSAGGS [r12_348_TrROS]
0.361

Fill in reported folding stability dG unfold for this entry: SAGGSAGGSAGGSGPVPVTIKSVTTYPEKDVYKVETVPATPEPITITLSPEELSDVVILSAGGSAGGSAGGS [r4_51_JUSTAS]
-0.437

# return recorded folding stability dG unfold for entry SNVHIHVEPDPDGRVKITLMMPPDNPDEFAEEIAENLGYPVKITDIEPFPFKKNGKPREYYMIEIEIRLPSA [r9_431_TrROS]
2.56

###

Measurement Protocol: folding stability dG unfold (combined trypsin and chymotrypsin); higher = more stable
Listing of recorded folding stability dG unfold by entry.

Item Sequence	folding stability dG unfold
SAGKERTWRIYVPKNMPPGRPFEGELELNPNGERDVRISWPGGKTRKIKSPDDIKELAKSGYPIMIEPVSAG [r5_42_TrROS]	< -1 kcal/mol
SAGGSAGGSAGGFVEKYPDGVIVEKDPNNDSGTVKKVTTTKDPNTNKPTSKVTVTPISKLSAGGSAGGSAGG [r7_181_JUSTAS]	< -1 kcal/mol

Return value of folding stability dG unfold for input SAPEVSVEEEEEEITDPVTGEKTTVYKITTKITLPDPNSSKKVTLTKPVIVEKTKSGTKVTEKPVFLLLSAG [r14_339_JUSTAS] , no commentary.
< -1 kcal/mol

Return folding stability dG unfold (reported value) for this sequence: SAGGSAMFEVRKLSEDPSTGVTTELITLPDGKEVTVTTTTDSSGNPTVTVTFPDGTVLSLEEVELESAGGSA [r15_832_JUSTAS]
< -1 kcal/mol

Give the reported folding stability dG unfold for this sequence. SAGGSAGGSAGGTDKVKEKLAPGRDITVLKIDPTDSVVNVTVKSPDSDVDTVVEVDPELISAGGSAGGSAGG [r7_303_JUSTAS]
< -1 kcal/mol

Give folding stability dG unfold for SAGGSAGGSAGGSVIMVNSPEWAKEFAGAMMQEKSRKHGEPMTPDDVPVEIEVYDPEDWSAGGSAGGSAGGS [r4_498_TrROS]
< -1 kcal/mol

Tell me folding stability dG unfold reported for SAGGSAGGSAGSVTVSSTTTTLTDSMRVITETFTSPDLVKVTFVPTSNPEDVTVTTLPSASAGGSAGGSAGG [r11_1046_JUSTAS]
0.643 kcal/mol
